Biological target: Glucagon-like peptide 1 receptor (Homo sapiens, UniProt P43220)
Sequence (P43220 whole entry): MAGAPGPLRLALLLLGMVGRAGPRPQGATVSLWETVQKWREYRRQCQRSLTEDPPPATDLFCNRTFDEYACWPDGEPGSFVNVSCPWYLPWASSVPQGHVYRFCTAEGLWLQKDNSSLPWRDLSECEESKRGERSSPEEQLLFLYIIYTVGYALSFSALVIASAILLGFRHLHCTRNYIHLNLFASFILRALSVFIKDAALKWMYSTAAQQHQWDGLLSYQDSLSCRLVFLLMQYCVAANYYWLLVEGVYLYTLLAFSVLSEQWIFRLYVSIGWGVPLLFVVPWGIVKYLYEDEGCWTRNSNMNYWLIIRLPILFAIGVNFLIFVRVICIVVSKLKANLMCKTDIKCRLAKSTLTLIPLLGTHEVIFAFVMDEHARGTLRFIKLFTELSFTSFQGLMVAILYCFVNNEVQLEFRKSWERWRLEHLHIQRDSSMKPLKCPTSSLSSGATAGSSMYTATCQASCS
Assay: GLP-1 Assay with EX-4 Synthetic Agonist: To assess the effects of test compounds on GLP-1 or glucagon potency and efficacy, a high-throughput calcium mobilization assay was used essentially as previously described (Morris L C, Days E L, Turney M, Mi D, Lindsley C W, Weaver C D, Niswender K D, A Duplexed High-Throughput Screen to Identify Allosteric Modulators of the Glucagon-Like Peptide 1 and Glucagon Receptors. J. Biomol. Screen. 2014 Feb. 13, 19(6):847-858). Briefly, human GLP-1R or Glucagon Receptor 9-3-H cells over-expressing a promiscuous G-protein (Millipore, Billerica, Mass.) were plated at 15,000 cells/well in black-walled 384-well plates (Greiner Bio-one, Monroe, N.C.) in Dulbecco's Modified Eagles Medium (DMEM) with 10% FCS, 4.0 mM L-glutamine, 1× non-essential amino acids (NEAAs), and 10.0 mM HEPES without antibiotics. After overnight attachment, cells were washed twice with assay buffer (HBSS supplemented with 20 mM HEPES and 1.0 mM probenecid) using an EL×405CW cell washer (Bio-Tek, Winooski, Vt.) and then loaded with the calcium sensitive dye fluo-4 AM (Invitrogen, Grand Island, N.Y.) at a final concentration of 2.0 μM in assay buffer. After a 45-minute incubation at room temperature, the dye was removed by washing, leaving 20 μL of assay buffer. Next, the cell plate was introduced alongside a 384-well compound plate containing 0.1% final DMSO control wells and 11-point concentration response curves of putative GLP-1 PAMs created using a non-pipet based liquid transfer instrument, ECH0555 (Labcyte, Sunnyvale, Calif.). After a 20 μL compound addition to the appropriate wells, kinetic fluorescent measurements were collected for 2 minutes using an FDSS6000 (Hamamatsu, Bridgewater, N.J.) with 488 nm excitation and 480/540 emission filters. After 2 minutes, 10 μL of an EC20 concentration of EX-4 (Phoenix Pharmaceuticals, Burlingame, Calif.), Glucagon (Phoenix Pharmaceuticals, Burlingame, Calif.) Exendin-4 (Tocris Bioscience, Bristol, UK), or Liraglutide (Victoza™, Novo-Nordisk, Denmark) was added and fluorescence was monitored for an additional 2 minutes to observe potentiation of the calcium flux signal. […] Recombinant peptides were reconstituted into assay buffer supplemented with 0.1% fatty acid free BSA (Sigma #A6003) and diluted into borosilicate glass tubes to maximize peptide recovery (Goebel-Stengel M, Stengel A, Taché Y, Reeve J R Jr., The importance of using the optimal plasticware and glassware in studies involving peptides. Anal. Biochem. 2011 Jul. 1, 414(1):38-46).
pEC50: −log10 of the molar value.
OUTCOME_MEASURE: pEC50

Inquiry: Which pEC50 value is on record for Cc1c2ccccc2n2c(C(=O)NC[C@H]3CCCN3C(C)C)cn(C3CCCC3)c(=O)c12 ?
Reply text: < 4.52
